target: Pin1 (Homo sapiens); construct: endogenous in cells; host or cells: 293T cells; experiment: Evaluation of inhibitory activity on function of Pin1: cell assay using degree of AMPK phosphorylation as index; format: cell-based; design: key: −: Promotion of AMPK phosphorylation was not (or hardly) found.; +: Phosphorylation of AMPK was promoted, but the promotion was weaker than that by C1.; ++: Phosphorylation of AMPK was promoted to the same degree as in the case of C1.; +++: Phosphorylation of AMPK was promoted more strongly than in the case of C1; conditions: 293T cells, compound 100 μM, 10 mM 2-DG, pAMPK immunoblot rated by comparison with C1

# compound, Pin1 inhibitory activity
records = [
    ("O=C(O[C@H](Cc1ccc2ccccc2c1)C(=O)OCc1ccccc1)c1ccc2ccccc2c1 [Compound H-21]", "−"),
    ("Cc1cc(C)cc(C(=O)O[C@H](Cc2ccc3ccccc3c2)C(=O)O)c1 [Compound H-210]", "+"),
    ("O=C(O[C@H](Cc1ccc2ccccc2c1)C(=O)O)c1ccc(F)c(F)c1 [Compound H-270]", "+"),
    ("O=C(O[C@H](Cc1ccc2ccccc2c1)C(=O)O)c1ccc(Oc2ccccc2)cc1 [Compound H-123]", "++"),
    ("O=C(O)[C@@H](Cc1ccc2ccccc2c1)OC(=O)N1c2ccccc2Oc2ccccc21 [Compound H-157]", "++"),
    ("COc1cc(OC)cc(C(=O)O[C@H](Cc2ccc3ccccc3c2)C(=O)O)c1 [Compound H-198]", "+"),
    ("O=C(CC1c2ccccc2-c2ccccc21)O[C@H](Cc1ccc2ccccc2c1)C(=O)O [Compound H-106]", "++"),
    ("O=C(O[C@H](Cc1ccc2ccccc2c1)C(=O)O)C(c1ccccc1)c1ccccc1 [Compound H-134]", "++"),
    ("O=C(O[C@H](Cc1ccc2ccccc2c1)C(=O)O)c1cccc(Oc2ccccc2)c1 [Compound H-130]", "++"),
    ("O=C(O[C@H](Cc1ccc2ccccc2c1)C(=O)O)c1ccc(-c2ccccc2)cc1 [Compound H-33]", "+"),
    ("O=C(O[C@H](Cc1ccc2ccccc2c1)C(=O)O)c1ccc2ccccc2c1 [Compound H-30]", "++"),
    ("O=C(O[C@@H](Cc1ccc2ccccc2c1)C(=O)O)C1c2ccccc2-c2ccccc21 [Compound H-141]", "+++"),
]

----------
target: Pin1 (Homo sapiens); construct: endogenous in cells; host or cells: 293T cells; test: Evaluation of inhibitory activity on function of Pin1: cell assay using degree of AMPK phosphorylation as index; type: cell-based; set-up: key: −: Promotion of AMPK phosphorylation was not (or hardly) found.; +: Phosphorylation of AMPK was promoted, but the promotion was weaker than that by C1.; ++: Phosphorylation of AMPK was promoted to the same degree as in the case of C1.; +++: Phosphorylation of AMPK was promoted more strongly than in the case of C1; settings: 293T cells, compound 100 μM, 10 mM 2-DG, pAMPK immunoblot rated by comparison with C1

# compound, Pin1 inhibitory activity
rows = [
    ("O=C(O[C@H](Cc1ccc2ccccc2c1)C(=O)O)c1ccc(C(O)c2ccccc2)cc1 (stereo partly shown)", "++"),
    ("CC(C)(C)OC(=O)N[C@@H](Cc1ccccc1)C(=O)O[C@H](Cc1ccc2ccccc2c1)C(=O)O", "+"),
    ("O=C(O[C@H](Cc1ccc2ccccc2c1)C(=O)O)c1cc(Cl)cc(Cl)c1", "+"),
    ("O=C(COc1ccc2ccccc2c1)O[C@H](Cc1ccc2ccccc2c1)C(=O)O", "++"),
]

----------
biological target: Pin1 (Homo sapiens, UniProt Q13526); construct: endogenous in cells; host or cells: 293T cells; assay: Evaluation of inhibitory activity on function of Pin1: cell assay using degree of AMPK phosphorylation as index; type: cell-based; design: key: −: Promotion of AMPK phosphorylation was not (or hardly) found.; +: Phosphorylation of AMPK was promoted, but the promotion was weaker than that by C1.; ++: Phosphorylation of AMPK was promoted to the same degree as in the case of C1.; +++: Phosphorylation of AMPK was promoted more strongly than in the case of C1; details: 293T cells, compound 100 μM, 10 mM 2-DG, pAMPK immunoblot rated by comparison with C1
Sequence (Q13526 whole entry): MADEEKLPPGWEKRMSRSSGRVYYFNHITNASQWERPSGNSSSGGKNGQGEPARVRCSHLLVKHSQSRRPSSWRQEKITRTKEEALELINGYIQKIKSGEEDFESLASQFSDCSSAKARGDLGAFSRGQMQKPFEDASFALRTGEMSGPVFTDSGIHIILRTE

# structureSmiles, assayedTarget, Pin1 inhibitory activity
rows = [
    ("COc1ccc(C(=O)O[C@H](Cc2ccc3ccccc3c2)C(=O)O)cc1OC", "Pin1 (Homo sapiens, UniProt Q13526)", "+"),
    ("COc1ccc(-c2cc(C(=O)O[C@H](Cc3ccc4ccccc4c3)C(=O)O)c(C)o2)cc1", "Pin1 (Homo sapiens, UniProt Q13526)", "+"),
    ("O=C(O)[C@@H](Cc1ccc2ccccc2c1)OC(=O)n1c2ccccc2c2ccccc21", "Pin1 (Homo sapiens, UniProt Q13526)", "+++"),
    ("O=C(COc1ccccc1)O[C@H](Cc1ccc2ccccc2c1)C(=O)O", "Pin1 (Homo sapiens, UniProt Q13526)", "++"),
]

----------
target: Pin1 (Homo sapiens); construct: endogenous in cells; host or cells: 293T cells; experiment: Evaluation of inhibitory activity on function of Pin1: cell assay using degree of AMPK phosphorylation as index; assay type: cell-based; design: key: −: Promotion of AMPK phosphorylation was not (or hardly) found.; +: Phosphorylation of AMPK was promoted, but the promotion was weaker than that by C1.; ++: Phosphorylation of AMPK was promoted to the same degree as in the case of C1.; +++: Phosphorylation of AMPK was promoted more strongly than in the case of C1; conditions: 293T cells, compound 100 μM, 10 mM 2-DG, pAMPK immunoblot rated by comparison with C1

# compound, assayedTarget, Pin1 inhibitory activity
data = [
    ("O=C(O[C@H](Cc1ccc2ccccc2c1)C(=O)O)C1c2ccccc2-c2ccccc21 [Compound H-31]", "Pin1 (Homo sapiens)", "+++"),
    ("O=C(Cc1ccc2ccccc2c1)O[C@H](Cc1ccc2ccccc2c1)C(=O)O [Compound H-149]", "Pin1 (Homo sapiens)", "+"),
    ("O=C(O[C@H](Cc1ccc2ccccc2c1)C(=O)O)c1ccc(Cl)c(Cl)c1 [Compound H-269]", "Pin1 (Homo sapiens)", "+"),
    ("O=C(Cc1c[nH]c2ccccc12)O[C@H](Cc1ccc2ccccc2c1)C(=O)O [Compound H-180]", "Pin1 (Homo sapiens)", "++"),
    ("O=C(Cc1cccc2ccccc12)O[C@H](Cc1ccc2ccccc2c1)C(=O)O [Compound H-151]", "Pin1 (Homo sapiens)", "++"),
    ("O=C(O[C@H](Cc1ccc2ccccc2c1)C(=O)O)c1ccccc1Oc1ccccc1 [Compound H-132]", "Pin1 (Homo sapiens)", "+"),
    ("O=C(COc1cccc2ccccc12)O[C@H](Cc1ccc2ccccc2c1)C(=O)O [Compound H-179]", "Pin1 (Homo sapiens)", "+++"),
    ("Cc1ccc(C(=O)O[C@H](Cc2ccc3ccccc3c2)C(=O)O)cc1C [Compound H-265]", "Pin1 (Homo sapiens)", "+"),
]
